System: LG0567-F671-PDC complex spheroids viability;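 also: spheroids exposed to compound for seven days before readout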
Method Notes: Anticancer human tumor LG0567-F671-PDC patient-derived lung adenocarcinoma cell line growth inhibition [RAS]
Assay Setup: second compound 0.03 µM; first compound 0.01 µM; hits give low values
# viability, T/C annotations

>  <Compound>
C=CC(=O)Nc1cc(Nc2nccc(-c3cn(C)c4ccccc34)n2)c(OC)cc1N(C)CCN(C)C + CCn1c(-c2cc(N3CCN(C)CC3)cnc2C(C)OC)c2c3cc(ccc31)-c1csc(n1)CC(NC(=O)C1CC1C)C(=O)N1CCCC(N1)C(=O)OCC(C)(C)C2

>  <viability, T/C (%)>
3.87

$$$$
>  <Compound>
CC(C)n1nc(-c2ccc3oc(N)nc3c2)c2c(N)ncnc21 + CCn1c(-c2cc(N3CCN(C)CC3)cnc2C(C)OC)c2c3cc(ccc31)-c1csc(n1)CC(NC(=O)C1CC1C)C(=O)N1CCCC(N1)C(=O)OCC(C)(C)C2

>  <viability, T/C (%)>
2

$$$$
>  <Compound>
C=CC(=O)N1CCN(c2nc(OCC3CCCN3C)nc3c(F)c(-c4nc(N)cc(C)c4C(F)(F)F)c(Cl)cc23)C(C)C1 (configuration not stated) + CCn1c(-c2cc(N3CCN(C)CC3)cnc2C(C)OC)c2c3cc(ccc31)-c1csc(n1)CC(NC(=O)C1CC1C)C(=O)N1CCCC(N1)C(=O)OCC(C)(C)C2

>  <viability, T/C (%)>
3.58

$$$$
>  <Compound>
Nc1ccn(C2OC(CO)C(O)C2(F)F)c(=O)n1 (configuration not stated) + CCn1c(-c2cccnc2C(C)OC)c2c3cc(ccc31)N1CCOC(CC(NC(=O)C(C(C)C)N(C)C(=O)C3(F)CCN(C(=O)C#CC(C)(C)N(C)C)CC3)C(=O)N3CCCC(N3)C(=O)OCC(C)(C)C2)C1

>  <viability, T/C (%)>
13.7

$$$$
>  <Compound>
C=CC(=O)N1CCN(c2nc(OCC3CCCN3C)nc3c(F)c(-c4nc(N)cc(C)c4C(F)(F)F)c(Cl)cc23)C(C)C1 (configuration not stated) + CCn1c(-c2cccnc2C(C)OC)c2c3cc(ccc31)N1CCOC(CC(NC(=O)C(C(C)C)N(C)C(=O)C3(F)CCN(C(=O)C#CC(C)(C)N(C)C)CC3)C(=O)N3CCCC(N3)C(=O)OCC(C)(C)C2)C1

>  <viability, T/C (%)>
13.9

$$$$
>  <Compound>
O=C(c1ccc(F)c(F)c1Nc1ccc(I)cc1F)N1CC(O)([C@@H]2CCCCN2)C1 + CCn1c(-c2cc(N3CCN(C)CC3)cnc2C(C)OC)c2c3cc(ccc31)-c1csc(n1)CC(NC(=O)C1CC1C)C(=O)N1CCCC(N1)C(=O)OCC(C)(C)C2

>  <viability, T/C (%)>
1.98

$$$$
>  <Compound>
C=CC(=O)Nc1cc(Nc2nccc(-c3cn(C)c4ccccc34)n2)c(OC)cc1N(C)CCN(C)C + CCn1c(-c2cccnc2C(C)OC)c2c3cc(ccc31)N1CCOC(CC(NC(=O)C(C(C)C)N(C)C(=O)C3(F)CCN(C(=O)C#CC(C)(C)N(C)C)CC3)C(=O)N3CCCC(N3)C(=O)OCC(C)(C)C2)C1

>  <viability, T/C (%)>
11.5

$$$$
>  <Compound>
CC(C)n1nc(-c2ccc3oc(N)nc3c2)c2c(N)ncnc21 + CCn1c(-c2cccnc2C(C)OC)c2c3cc(ccc31)N1CCOC(CC(NC(=O)C(C(C)C)N(C)C(=O)C3(F)CCN(C(=O)C#CC(C)(C)N(C)C)CC3)C(=O)N3CCCC(N3)C(=O)OCC(C)(C)C2)C1

>  <viability, T/C (%)>
9.46

$$$$
>  <Compound>
Nc1ccn(C2OC(CO)C(O)C2(F)F)c(=O)n1 (configuration not stated) + CCn1c(-c2cc(N3CCN(C)CC3)cnc2C(C)OC)c2c3cc(ccc31)-c1csc(n1)CC(NC(=O)C1CC1C)C(=O)N1CCCC(N1)C(=O)OCC(C)(C)C2

>  <viability, T/C (%)>
4.5

$$$$
>  <Compound>
CCN1CCN(Cc2ccc(Nc3ncc(F)c(-c4cc(F)c5nc(C)n(C(C)C)c5c4)n3)nc2)CC1 + CCn1c(-c2cc(N3CCN(C)CC3)cnc2C(C)OC)c2c3cc(ccc31)-c1csc(n1)CC(NC(=O)C1CC1C)C(=O)N1CCCC(N1)C(=O)OCC(C)(C)C2

>  <viability, T/C (%)>
4.91

$$$$
>  <Compound>
O=C(c1ccc(F)c(F)c1Nc1ccc(I)cc1F)N1CC(O)([C@@H]2CCCCN2)C1 + CCn1c(-c2cccnc2C(C)OC)c2c3cc(ccc31)N1CCOC(CC(NC(=O)C(C(C)C)N(C)C(=O)C3(F)CCN(C(=O)C#CC(C)(C)N(C)C)CC3)C(=O)N3CCCC(N3)C(=O)OCC(C)(C)C2)C1

>  <viability, T/C (%)>
10.1

$$$$
>  <Compound>
CCN1CCN(Cc2ccc(Nc3ncc(F)c(-c4cc(F)c5nc(C)n(C(C)C)c5c4)n3)nc2)CC1 + CCn1c(-c2cccnc2C(C)OC)c2c3cc(ccc31)N1CCOC(CC(NC(=O)C(C(C)C)N(C)C(=O)C3(F)CCN(C(=O)C#CC(C)(C)N(C)C)CC3)C(=O)N3CCCC(N3)C(=O)OCC(C)(C)C2)C1

>  <viability, T/C (%)>
12.9

$$$$
